Each record here notes measured pIC50.
Biological target: full-length beta-Catenin (Uniprot ID P35222) (Homo sapiens, UniProt P35222)
Construct: 10 nM full-length beta-Catenin (Uniprot ID P35222)
Sequence (P35222 whole entry): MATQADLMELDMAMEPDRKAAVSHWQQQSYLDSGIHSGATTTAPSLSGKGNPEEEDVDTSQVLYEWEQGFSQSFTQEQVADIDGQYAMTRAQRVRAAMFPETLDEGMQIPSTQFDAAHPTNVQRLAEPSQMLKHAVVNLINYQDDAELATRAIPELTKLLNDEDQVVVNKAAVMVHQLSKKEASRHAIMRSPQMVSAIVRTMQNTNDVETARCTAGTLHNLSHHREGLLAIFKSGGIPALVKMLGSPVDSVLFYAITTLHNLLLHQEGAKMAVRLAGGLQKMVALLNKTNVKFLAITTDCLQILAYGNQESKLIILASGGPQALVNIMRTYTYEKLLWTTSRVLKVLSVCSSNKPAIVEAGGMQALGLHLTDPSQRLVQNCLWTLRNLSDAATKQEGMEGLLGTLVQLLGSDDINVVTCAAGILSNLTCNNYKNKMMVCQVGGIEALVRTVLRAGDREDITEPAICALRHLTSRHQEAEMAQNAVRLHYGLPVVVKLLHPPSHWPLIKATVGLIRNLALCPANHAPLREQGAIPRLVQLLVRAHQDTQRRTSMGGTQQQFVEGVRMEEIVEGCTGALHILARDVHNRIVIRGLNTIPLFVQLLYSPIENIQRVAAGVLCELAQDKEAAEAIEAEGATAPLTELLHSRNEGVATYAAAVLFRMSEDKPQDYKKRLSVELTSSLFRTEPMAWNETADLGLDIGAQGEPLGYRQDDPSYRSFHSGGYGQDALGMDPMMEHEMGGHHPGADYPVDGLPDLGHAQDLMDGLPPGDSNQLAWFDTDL
Assay: Fluorescence polarization IC50 (beta-catenin / 5FAM-TCF4 10-53 competition)
Assay type: binding
Conditions: fluorescence polarization; read-out: beta-Catenin FP IC50
// pIC50 is dimensionless: -log10 of concentration (M)

Below, each entry is followed by its recorded pIC50 result.
Given the entry CC(=O)N1CCC[C@]12CC=CCCCC1(CCCC=CCCCOC(=O)N3CC[C@@](C(=O)N[C@@H](Cc4ccccc4Cl)C(=O)N[C@@H](Cc4csc5ccccc45)C(=O)N[C@@H](CCC(N)=O)C(N)=O)(C3)NC(=O)[C@H](CC(C)C)NC(=O)[C@H](Cc3ccccc3)NC(=O)[C@H](C)NC(=O)[C@H](CCCCNC(C)C)NC(=O)[C@H](CC(=O)O)NC(=O)[C@H](CC(=O)O)NC1=O)NC(=O)[C@H](CC(C)(C)C)NC(=O)[C@H](CC(=O)O)NC2=O (some centres unmarked) , what pIC50 was observed with full-length beta-Catenin (Uniprot ID P35222) (Homo sapiens, UniProt P35222)?
8.05

Given the entry CC(=O)N1CCC[C@]12CC=CCCCC1(CCCC=CCCCOC(=O)N3CC[C@@](C(=O)N[C@@H](Cc4ccsc4)C(=O)N[C@@H](Cc4csc5ccccc45)C(=O)N[C@@H](CCC(N)=O)C(N)=O)(C3)NC(=O)[C@H](CCC(=O)N3CCC(N4CCCCC4)CC3)NC(=O)[C@H](Cc3ccccc3)NC(=O)[C@H](C)NC(=O)[C@H](C)NC(=O)[C@H](CN(CC(=O)O)CC(F)(F)F)NC(=O)[C@H](CC(=O)O)NC1=O)NC(=O)[C@H](CC(C)(C)C)NC(=O)[C@H](CC(=O)O)NC2=O (some centres unmarked) , what pIC50 was observed with full-length beta-Catenin (Uniprot ID P35222) (Homo sapiens, UniProt P35222)?
8.22

Given the entry CC(=O)N1CCC[C@]12CC=CCCCC1(CCCC=CCCCOC(=O)N3CC[C@@](C(=O)N[C@@H](Cc4ccsc4)C(=O)N[C@@H](Cc4csc5ccccc45)C(=O)N[C@@H](CCC(N)=O)C(N)=O)(C3)NC(=O)[C@H](CC(N)=O)NC(=O)[C@H](Cc3ccccc3)NC(=O)[C@H](C)NC(=O)[C@H](C)NC(=O)[C@H](CN(CCC(F)(F)F)CC(=O)O)NC(=O)[C@H](CC(=O)O)NC1=O)NC(=O)[C@H](CC(C)(C)C)NC(=O)[C@H](CC(=O)O)NC2=O (some centres unmarked) , what pIC50 was observed with full-length beta-Catenin (Uniprot ID P35222) (Homo sapiens, UniProt P35222)?
8.10

Given the entry CC(=O)N1CCC[C@]12CC=CCCCC1(CCCC=CCCCOC(=O)N3CC[C@@](C(=O)N[C@@H](Cc4ccsc4)C(=O)N[C@@H](Cc4csc5ccccc45)C(=O)N[C@@H](C)C(N)=O)(C3)NC(=O)[C@H](CC(C)C)NC(=O)[C@H](Cc3ccccc3)NC(=O)[C@H](C)NC(=O)C(C)(C)NC(=O)[C@H](Cc3cc(C(=O)O)cc(C(F)(F)F)c3)NC(=O)[C@H](CC(=O)O)NC1=O)NC(=O)[C@H](CC(C)(C)C)NC(=O)[C@H](CC(=O)O)NC2=O (some centres unmarked) , what pIC50 was observed with full-length beta-Catenin (Uniprot ID P35222) (Homo sapiens, UniProt P35222)?
7.22

// moving on: another record for pIC50
Given the entry CC(=O)N1CCC[C@]12CC=CCCCC1(CCCC=CCCCCCC[C@@](C)(C(=O)N[C@@H](Cc3ccccc3)C(=O)N[C@@H](Cc3csc4ccccc34)C(=O)N[C@@H](CCC(N)=O)C(N)=O)NC(=O)[C@H](CCC(N)=O)NC(=O)[C@H](Cc3ccccc3)NC(=O)[C@H](C)NC(=O)[C@H](C)NC(=O)[C@H](CC(=O)O)NC(=O)[C@H](CC(=O)O)NC1=O)NC(=O)[C@H](CC(C)C)NC(=O)[C@H](CC(=O)O)NC2=O (some centres unmarked) [I-558] , what pIC50 was observed with full-length beta-Catenin (Uniprot ID P35222) (Homo sapiens, UniProt P35222)?
7.25

Values from patent US20240116985A1
